Quick list: % inhibition of the pentagastrin induced gastric acid secretion per entry.
- Tested on: pentagastrin induced gastric acid secretion
- assay.method.text: Inhibition of pentagastrin induced gastric acid secretion in acute dog experiments with a modified perfusion technique (anaesthetized dog)
- Type: in vivo
- condition.description: 10 mg/kg body weight, given into the duodenum in 0.5% Methocel suspension, pentagastrin 1-2 μg/kg
assay.metric: % inhibition of the pentagastrin induced gastric acid secretion

compound.smiles	obs.value
COc1ccc2[nH]c(SCc3ccccn3)nc2c1	40%
Cc1cccc2[nH]c(SCc3ccccn3)nc12	89%
CCOC(=O)c1ccc2[nH]c(SCc3ccccn3)nc2c1	70%
CCc1ccc2nc(SCc3ccccn3)[nH]c2c1	86%
COC(=O)n1c(SCc2ccccn2)nc2ccccc21	76%
CC(=O)n1c(SCc2ccccn2)nc2ccccc21	80%
